- test-target: HCV-NS5BΔ21 RdRp genotype 1b (strain J4) (Hepatitis C virus genotype 1b)
- Sequence (O92972 2420-2989, stated change not applied): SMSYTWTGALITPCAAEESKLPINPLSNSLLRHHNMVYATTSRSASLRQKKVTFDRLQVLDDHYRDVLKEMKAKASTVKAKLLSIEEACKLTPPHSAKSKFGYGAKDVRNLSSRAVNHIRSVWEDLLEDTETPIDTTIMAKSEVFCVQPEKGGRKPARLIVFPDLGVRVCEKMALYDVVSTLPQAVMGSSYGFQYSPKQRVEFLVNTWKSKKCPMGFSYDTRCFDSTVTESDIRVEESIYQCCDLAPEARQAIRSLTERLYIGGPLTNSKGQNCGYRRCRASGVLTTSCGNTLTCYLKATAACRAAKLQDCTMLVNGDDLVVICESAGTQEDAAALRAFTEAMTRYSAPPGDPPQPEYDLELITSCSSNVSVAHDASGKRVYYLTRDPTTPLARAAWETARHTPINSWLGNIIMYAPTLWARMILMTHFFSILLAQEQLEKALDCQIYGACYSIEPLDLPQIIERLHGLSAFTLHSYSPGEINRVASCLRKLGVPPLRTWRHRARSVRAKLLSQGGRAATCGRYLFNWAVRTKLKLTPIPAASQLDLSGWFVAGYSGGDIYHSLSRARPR
- procedure-summary: biochemical
- Set-up: His6 (N); made in house; host or cells: Escherichia coli C41(DE3)
- experimental-conditions: 20 μM compound
Our labelling divides records by inhibition at 20 µM into ranges: LOW (below 10%), MID (10% to below 80%), HIGH (80% or more)

- O=C1CC(c2ccc(O)cc2)Oc2ccccc21 (stereo not drawn) [4’-Hydroxyflavanone]: LOW
- O=c1c(O)c(-c2ccc(O)cc2)oc2cc(O)cc(O)c12: MID
- O=C1C[C@@H](c2ccc(O)cc2)Oc2cc(O)cc(O)c21: LOW
- O=c1c(O)c(-c2ccc(O)c(O)c2)oc2cc(O)c(O)c(O)c12: HIGH
- O=c1c(O)c(-c2ccc(O)c(O)c2)oc2cc(O)cc(O)c12: HIGH
- O=c1c(-c2ccc(O)cc2)coc2cc(O)cc(O)c12: MID
- O=c1c(O[C@@H]2O[C@H](CO)[C@H](O)[C@H](O)[C@H]2O)c(-c2ccc(O)c(O)c2)oc2cc(O)cc(O)c12 [Hyperoside]: MID
